Numbers sourced from ChEMBL document CHEMBL1154973.

Molecular target: Acetylcholinesterase (Rattus norvegicus, UniProt P37136)
Sequence (P37136 whole entry): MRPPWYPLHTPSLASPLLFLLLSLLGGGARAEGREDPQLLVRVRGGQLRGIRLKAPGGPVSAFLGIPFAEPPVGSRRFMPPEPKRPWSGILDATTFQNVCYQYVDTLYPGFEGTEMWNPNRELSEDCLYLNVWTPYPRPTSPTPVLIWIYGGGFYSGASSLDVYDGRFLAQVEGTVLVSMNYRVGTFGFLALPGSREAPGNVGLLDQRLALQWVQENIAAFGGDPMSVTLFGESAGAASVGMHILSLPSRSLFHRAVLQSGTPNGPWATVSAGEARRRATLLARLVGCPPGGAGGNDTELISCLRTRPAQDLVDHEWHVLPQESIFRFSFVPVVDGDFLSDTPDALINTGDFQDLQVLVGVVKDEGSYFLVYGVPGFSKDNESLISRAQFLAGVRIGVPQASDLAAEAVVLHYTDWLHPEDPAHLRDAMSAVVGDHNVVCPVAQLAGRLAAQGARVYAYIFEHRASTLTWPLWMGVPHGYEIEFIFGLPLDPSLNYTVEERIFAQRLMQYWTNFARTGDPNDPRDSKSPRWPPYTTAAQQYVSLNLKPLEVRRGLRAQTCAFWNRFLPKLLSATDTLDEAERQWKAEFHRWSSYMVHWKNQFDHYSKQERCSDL
Assay: Inhibition of rat brain AChE by Ellman's method
Lab note: cut-off is 0.03 µM. Strictly less in IC50 is Yes. Exactly 0.03 µM or more is No.

CN1CC[C@@]2(C)c3cc(OC(=O)Nc4cccc(Cl)c4)ccc3N(C)[C@@H]12 = No

Is the reported IC50 for `CN1CC[C@@]2(C)c3cc(OC(=O)Nc4cc(Cl)cc(Cl)c4)ccc3N(C)[C@@H]12` strictly below 0.03 µM?
No

Strictly below 0.03 µM in IC50? `CN1CC[C@@]2(C)c3cc(OC(=O)Nc4cccc(C#N)c4)ccc3N(C)[C@@H]12`
No

* * *

Ratio IC50 values, listed per item
Target: Acetylcholinesterase and butyrylcholinesterase (AChE and BChE) (Rattus norvegicus) (UniProt P37136+Q9JKC1)
Sequence (P37136 whole entry): as above
Sequence (Q9JKC1 1-597): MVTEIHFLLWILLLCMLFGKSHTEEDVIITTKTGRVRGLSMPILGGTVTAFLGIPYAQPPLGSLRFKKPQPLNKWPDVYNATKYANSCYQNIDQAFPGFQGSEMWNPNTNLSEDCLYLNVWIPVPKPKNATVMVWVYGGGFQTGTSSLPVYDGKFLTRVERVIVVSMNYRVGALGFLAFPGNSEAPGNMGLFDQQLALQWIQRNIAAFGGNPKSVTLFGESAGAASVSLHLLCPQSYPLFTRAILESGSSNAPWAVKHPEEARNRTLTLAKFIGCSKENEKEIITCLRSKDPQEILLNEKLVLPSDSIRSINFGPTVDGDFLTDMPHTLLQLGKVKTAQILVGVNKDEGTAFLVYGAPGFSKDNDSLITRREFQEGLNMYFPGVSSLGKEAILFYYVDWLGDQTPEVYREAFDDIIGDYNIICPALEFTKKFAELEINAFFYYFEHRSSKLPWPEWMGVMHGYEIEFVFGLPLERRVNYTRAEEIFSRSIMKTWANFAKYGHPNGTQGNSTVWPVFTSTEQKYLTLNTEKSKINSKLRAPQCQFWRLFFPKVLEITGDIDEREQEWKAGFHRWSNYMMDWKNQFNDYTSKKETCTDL
Test: Selectivity ratio of IC50 for rat plasma BChE to IC50 for rat brain AChE
Format: cell-free
Reply with the value as a number alone.

Some compounds with recorded Ratio IC50:
CN1CC[C@@]2(C)c3cc(OC(=O)Nc4cc(Cl)cc(Cl)c4)ccc3N(C)[C@@H]12 = 8
CN1CC[C@@]2(C)c3cc(OC(=O)Nc4ccccc4)ccc3N(C)[C@@H]12 = 10

For `CN1CC[C@@]2(C)c3cc(OC(=O)Nc4cccc(C#N)c4)ccc3N(C)[C@@H]12` the compound record lists Ratio IC50 as 4

The recorded Ratio IC50 for `CN1CC[C@@]2(C)c3cc(OC(=O)Nc4cccc5ccccc45)ccc3N(C)[C@@H]12` is 3

// recorded Ratio IC50 for `CN1CC[C@@]2(C)c3cc(OC(=O)NC4CCCCC4)ccc3N(C)[C@@H]12` : 174

* * *

Target: Acetylcholinesterase and butyrylcholinesterase (AChE and BChE) (Rattus norvegicus) (UniProt P37136+Q9JKC1)
Assay: Selectivity ratio of IC50 for rat plasma BChE to IC50 for rat brain AChE
Type: cell-free
assay-readout: Ratio IC50

Example results:
CN1CC[C@@]2(C)c3cc(OC(=O)Nc4cccc(Cl)c4Cl)ccc3N(C)[C@@H]12 = 8
Cc1c(Cl)cccc1NC(=O)Oc1ccc2c(c1)[C@]1(C)CCN(C)[C@@H]1N2C = 18

Attention now turns to another entry.
Sure, the documented Ratio IC50 for `CN1CC[C@@]2(C)c3cc(OC(=O)Nc4cccc(Cl)c4)ccc3N(C)[C@@H]12` is 3

* * *

Biological target: Butyrylcholinesterase (Rattus norvegicus, UniProt Q9JKC1)
Sequence (Q9JKC1 whole entry): as the sequence (Q9JKC1 1-597) above
Experiment: Inhibition of rat plasma BChE by Ellman's method
Reported IC50 values for the following molecules.
Field format: number, assumed nM, no unit text.

The cases that follow already have their IC50 on record.
CNC(=O)Oc1ccc2c(c1)[C@]1(C)CCN(C)[C@@H]1N2C = 7.6
CN1CC[C@@]2(C)c3cc(OC(=O)Nc4cccc(Cl)c4Cl)ccc3N(C)[C@@H]12 = 517
CN1CC[C@@]2(C)c3cc(OC(=O)Nc4ccccc4Cl)ccc3N(C)[C@@H]12 = 88.7
Cc1ccc(NC(=O)Oc2ccc3c(c2)[C@]2(C)CCN(C)[C@@H]2N3C)cc1Cl = 8.5
CN1CC[C@@]2(C)c3cc(OC(=O)Nc4cccc(Cl)c4)ccc3N(C)[C@@H]12 = 105

Kindly note the recorded IC50 for `CN1CC[C@@]2(C)c3cc(OC(=O)Nc4ccc(Br)cc4)ccc3N(C)[C@@H]12` , which is 14.9

// recorded IC50 for `CN1CC[C@@]2(C)c3cc(OC(=O)Nc4ccccc4Br)ccc3N(C)[C@@H]12` : 39.6

Summary for this molecule, `COc1ccc(NC(=O)Oc2ccc3c(c2)[C@]2(C)CCN(C)[C@@H]2N3C)cc1` : IC50 is 5.8

Record `CN1CC[C@@]2(C)c3cc(OC(=O)Nc4cccc5ccccc45)ccc3N(C)[C@@H]12` , field IC50: 14.1

Given item `CC(C)c1cccc(C(C)C)c1NC(=O)Oc1ccc2c(c1)[C@]1(C)CCN(C)[C@@H]1N2C` , the value recorded as its IC50 is 830
